- assay.protocol: Alkali metal dependent formation of 1,5-cz-Lig and 1,4-cz-Lig isomers from Lig at pH 10.2 (Chart 14)
- Assay type: physicochemical
- conditions.used: B: 1 day at 80° C.; Borate/(M^I)2CO3 buffer pH 10.2
# binarize conversion to 1,5-cz-Lig isomer, Rb^I: threshold 10% inclusive, high side yes (1), low side no (0)

// query Record C#Cc1cccc(CN2CCNCCN(Cc3cccc(CN=[N+]=[N-])n3)CCN(CC(=O)O)CC2)n1 [TD703] ; criterion: conversion to 1,5-cz-Lig isomer, Rb^I no lower than 10%. Met?
// result yes (1)

// query Record C#Cc1cccc(CN2CCN(CC(=O)O)CCN(Cc3cc(-c4ccccc4)cc(CN=[N+]=[N-])n3)CCN(CC(=O)O)CC2)n1 [TD647] ; criterion: conversion to 1,5-cz-Lig isomer, Rb^I no lower than 10%. Met?
// result no (0)

// query Record C#Cc1cccc(CN2CCN(CC(=O)O)CCN(Cc3cccc(CN=[N+]=[N-])n3)CCN(CP(=O)(O)O)CC2)n1 [TD714] ; criterion: conversion to 1,5-cz-Lig isomer, Rb^I no lower than 10%. Met?
// result no (0)

// query Record C#Cc1cccc(CN2CCN(CP(=O)(O)O)CCN(Cc3cccc(CN=[N+]=[N-])n3)CCN(CP(=O)(O)O)CC2)n1 [TD581] ; criterion: conversion to 1,5-cz-Lig isomer, Rb^I no lower than 10%. Met?
// result no (0)

// query Record C#Cc1cccc(CN2CCN(CP(=O)(O)c3ccccc3)CCN(Cc3cccc(CN=[N+]=[N-])n3)CCN(CP(=O)(O)c3ccccc3)CC2)n1 [TD921] ; criterion: conversion to 1,5-cz-Lig isomer, Rb^I no lower than 10%. Met?
// result yes (1)
